melting point reference

Example cases with answers are listed next.
# COMPOUND, melting point
records = [
    ("CCCCCCC/C=C/C(=O)NCCC(C)C", "28 to 31 °C"),
    ("C[C@@H](O)CNc1c(-c2ccc(F)cc2)c(=O)c1=O", "235 to 237 °C"),
    ("CSc1ccc(C(C)Nc2nc(NC(C)=O)nc(C(F)(F)F)n2)cc1 (stereo unspecified)", "132 °C"),
    ("CC1c2ccccc2Cn2cc3c(c21)C(=O)c1ccccc1C3=O (stereo unspecified)", "215 to 218 °C"),
]

Query: Which melting point reading was recorded for the compound Cc1scc2c1N(C(=O)NCCN1CCC(CCCC3CCCN3C)CC1)c1ccccc1NC2=O (stereo unspecified) ?
Response: 145 to 146 °C

Query: Which melting point reading was recorded for the compound CC1CCn2nc(S(=O)(=O)Nc3c(Cl)cccc3Cl)nc2N1 (stereo unspecified) ?
Response: 230 to 235 °C

Query: Which melting point reading was recorded for the compound O=C1C2=C(CCCC2)C(SSC2C3=C(CCCC3)C(=O)N2c2ccc(Cl)cc2F)N1c1ccc(Cl)cc1F (stereo unspecified) ?
Response: 146 to 147 °C

Query: Which melting point reading was recorded for the compound O=S(=O)(C(/C=C/c1ccc(Cl)cc1)c1c(F)c(F)c(F)c(F)c1F)C(/C=C/c1ccc(Cl)cc1)c1c(F)c(F)c(F)c(F)c1F (stereo unspecified) ?
Response: 154 to 155 °C

Query: Which melting point reading was recorded for the compound CC(C)c1cn2cccc(C=O)c2n1 ?
Response: 70 to 72 °C

Query: Which melting point reading was recorded for the compound O=S1(=O)CCN(c2ccc(O)cc2)CC1 ?
Response: 153 to 155 °C

Query: Which melting point reading was recorded for the compound CCCCc1nc2cc[nH]c(=O)c2n1Cc1ccc(-c2ccccc2C#N)cc1 ?
Response: 165 °C

Query: Which melting point reading was recorded for the compound CN1CC(CN2CCN(c3ccccc3)CC2)OC1=O (stereo unspecified) ?
Response: 110 to 112 °C

Query: Which melting point reading was recorded for the compound O=C(Nc1cc(-c2ccnc3c(C(=O)c4cccs4)cnn23)ccc1F)OCCCl ?
Response: 194 to 196 °C

Query: Which melting point reading was recorded for the compound CC(=O)Oc1c(C)cc(C)cc1CCc1cc(C)cc(C)c1OC(C)=O ?
Response: 130 to 131 °C

Query: Which melting point reading was recorded for the compound CC(=O)N1c2ccccc2NC(=O)c2cscc21 ?
Response: 228 to 230 °C

Query: Which melting point reading was recorded for the compound Cc1c(C(=O)c2ccc(Cl)c(S(N)(=O)=O)c2)c2ccccc2n1C ?
Response: 247 to 249 °C

Query: Which melting point reading was recorded for the compound CCc1nc(/C=C/c2cn(-c3ccccc3C)nc2O)cs1 ?
Response: 174 to 176 °C

Query: Which melting point reading was recorded for the compound CS(=O)(=O)c1ccc(-c2cnn(CCc3ccccc3)c(=O)c2-c2ccc(F)cc2)cc1 ?
Response: 170 to 171 °C

Query: Which melting point reading was recorded for the compound CC1(O)NC(=O)OC12CCN(Cc1ccccc1)CC2 (stereo unspecified) ?
Response: 162 to 164 °C

Query: Which melting point reading was recorded for the compound O=C(O)C1CCC(=O)N1Cc1ccccc1C(F)(F)F (stereo unspecified) ?
Response: 139 to 141 °C

Query: Which melting point reading was recorded for the compound COC(=O)c1nc2cccc(Br)c2c(O)c1C(=O)OC ?
Response: 124 to 126 °C

###

PROPERTY_MEASURED: melting point

# COMPOUND, PROPERTY_MEASURED, ENDPOINT_VALUE
records = [
    ("COc1cc2c(=O)n3cccc3cnc2cc1OCc1ccccc1", "melting point", "58 to 61 °C"),
    ("CCOC(=O)N(C)C1CCc2c([nH]c3ccccc23)C1 (centres undefined)", "melting point", "167 to 168 °C"),
    ("CC1COc2c(N3CCC(n4cncn4)C3)c(F)cc3c(=O)c(C(=O)O)cn1c23 (single isomer, unassigned; (-))", "melting point", "229 to 231 °C"),
    ("O=C(O)CN1C(=O)C(=Cc2ccc(CO)o2)SC1=S", "melting point", "206 to 209 °C"),
    ("O=c1c(O)c(CCCCCO)oc2ccccc12", "melting point", "111 to 112 °C"),
]

Query: Which melting point reading was recorded for the compound CC(C)c1ccc(C(=O)C2=C(O)C(=O)N(c3ncc(S(=O)(=O)c4ccc([N+](=O)[O-])cc4)s3)C2c2ccc(OC(F)(F)F)cc2)cc1 (centres undefined) ?
Response: 276 to 278 °C

Query: Which melting point reading was recorded for the compound CN(C)C(=O)c1cc(O)c2nc(C(F)(F)F)n(C)c2c1 ?
Response: 243 to 244 °C

Query: Which melting point reading was recorded for the compound CCOC(=O)c1cnc2c(c(C)nc3cc(C)nn32)c1O ?
Response: 207 to 208 °C

Query: Which melting point reading was recorded for the compound Cc1cccc(-c2[nH]c(C(C)C)nc2-c2cccc(-c3ccc(OC(F)(F)F)cc3)c2)n1 ?
Response: 120 to 122 °C

###

melting point reference

Example cases with answers are listed next.
# COMPOUND, melting point
data = [
    ("Cc1oc(-c2ccccc2)nc1CCCCCOC(C)(C)C(=O)O", "66 to 68 °C"),
    ("CN(Cc1ccc(N)cc1)C1CCN(c2ccc(N)cc2)CC1", "123 °C"),
    ("O=C(Cn1c(=O)c2cc(Cl)ccc2n(Cc2ccc(Cl)cc2Cl)c1=O)OCCO", "167 to 168 °C"),
    ("CC1(C)CC(=O)SC(=NCCCCN2CCN(c3ncccn3)CC2)N1", "148 °C"),
    ("COc1ccc(NC(=O)Nc2ccc(Cl)c(Cl)c2)cc1NS(=O)(=O)c1cc(Cl)cc(Cl)c1", "225 to 227 °C"),
]

Query: Which melting point reading was recorded for the compound CCCc1c(OCCC2Cc3cc(C(=O)CCC(=O)O)ccc3O2)ccc(C(C)=O)c1O (stereo not given) ?
Response: 156 to 158 °C

###

melting point reference

Example cases with answers are listed next.
# MOLECULE, melting point
measured = [
    ("O=C(O)CCCCCCc1ccc2ccccc2c1[N+](=O)[O-]", "84 to 89 °C"),
    ("CC(C)(C)OC(=O)N[C@@H](COc1ccccc1N)C(=O)O", "90 to 91 °C"),
    ("CN(CCNC(=O)NCCCOc1cccc(CN2CCCCC2)c1)CCN(Cc1ccc(F)cc1)c1ccccn1", "68 °C"),
    ("CC(C)=CCCC(C)CCCC(C)=CC=CC(C)=CC(=O)O (stereo not given)", "60 to 62 °C"),
]

From here, focus on the item given below.
Query: Which melting point reading was recorded for the molecule Cn1c(C(N)=O)c2n(c1=O)-c1ccc(Cl)cc1C(c1ccccc1Cl)=NC2 ?
Response: 158 to 160 °C

###

melting point reference

Query: Which melting point reading was recorded for the molecule Clc1ccc2c(c1)C(c1ccccc1)=NCc1n[nH]cc1-2 ?
Response: 241 to 243 °C

Query: Which melting point reading was recorded for the molecule Nc1cscc1NC(=S)Nc1c(Cl)csc1Cl ?
Response: 110 to 115 °C

Query: Which melting point reading was recorded for the molecule O=C(O)Cc1ccc(OCCNC(=O)C2Cc3ccccc3N2S(=O)(=O)c2ccc(-c3ccc(F)cc3F)cc2)cc1 (stereo not given) ?
Response: 92 to 99 °C

Query: Which melting point reading was recorded for the molecule COC(=O)C(=CNC(C)=O)C(C)=O ?
Response: 60 to 62 °C

Query: Which melting point reading was recorded for the molecule CCOCC1COc2ccc(N)cc2O1 (stereo not given) ?
Response: 103 to 106 °C

Query: Which melting point reading was recorded for the molecule CC12CCC(=O)NC1=CCc1cc(F)ccc12 (stereo not given) ?
Response: 202 °C

Query: Which melting point reading was recorded for the molecule CCCCN(CC)CC1CCCCN1CCNC(=O)N1c2ccccc2C(=O)Nc2cccnc21 (stereo not given) ?
Response: 156 to 157 °C

Query: Which melting point reading was recorded for the molecule CO[C@]1(c2cc(F)cc(S(=O)(=O)c3ccc(/C(C)=N/O)cc3)c2)CCO[C@@H](C)C1 ?
Response: 149 °C

Query: Which melting point reading was recorded for the molecule O=C1CCC(=O)N1Cc1nc2sc3c(c2c(-c2ccc(Cl)cc2)c1Cl)CCNC3 ?
Response: 230 to 231 °C

Query: Which melting point reading was recorded for the molecule C=Cc1cn([C@@H]2O[C@H](C)[C@@H](OC(C)=O)[C@H]2OC(C)=O)c(=O)nc1N ?
Response: 198 to 199 °C

###

PROPERTY_MEASURED: melting point

Example cases with answers are listed next.
# COMPOUND, PROPERTY_MEASURED, ENDPOINT_VALUE
records = [
    ("COc1ccc2c(c1)C(=O)N(c1ccc3ccn(C)c3c1)C2", "melting point", "158 to 161 °C"),
    ("O=C1C(c2c[nH]c3ccccc23)C(c2c[nH]c3ccccc23)C(=O)N1Cc1ccccc1 (stereo not given)", "melting point", "112 to 115 °C"),
    ("O=C(O)c1cc(OCc2ccccc2)cc([N+](=O)[O-])c1", "melting point", "157 to 158 °C"),
    ("N#Cc1ccc(C(Cl)(Cl)Cl)cc1C(Cl)(Cl)Cl", "melting point", "76 to 78 °C"),
    ("CC(=O)Nc1ccc(OC(C)=O)c(C(=O)O)c1", "melting point", "196 to 198 °C"),
    ("COc1ccc(-c2sc(-c3ccc(OC)s3)c3c2OCCO3)s1", "melting point", "101 °C"),
    ("CCOC(=O)C1=C(C)N(c2ccc(Cl)cc2)C(=O)CC1", "melting point", "124 to 126 °C"),
    ("Cc1cc2c(N=C=S)cccc2cn1", "melting point", "92 °C"),
    ("CCCOc1ccc(C=CCCCCC(=O)O)cc1", "melting point", "52 to 53 °C"),
]

Query: Which melting point reading was recorded for the compound CC(NC(=O)C(O)c1cc(F)cc(F)c1)C(=O)NC1C(=O)N(C)c2ccccc2N(c2ccccc2)C1=O (stereo not given) ?
Response: 212 to 213 °C
